Cited source for all entries: the Human Domainome abundance scans (Beltran et al. 2025)

B1: Ankyrin repeat and SAM domain-containing protein 6, residues 774 to 836; numbered along this chain, Q68DC2 (parent)
chain: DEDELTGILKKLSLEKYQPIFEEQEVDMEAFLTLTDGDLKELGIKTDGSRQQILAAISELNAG

# Variants of: B1
# method.summary: abundance fitness (aPCA) (normalised: wild type 0, dead -1); higher = more abundant; growth selection in yeast, the domain comes from the species named
# settings: Homo sapiens
So basically: abundance fitness at -0.3 or higher? That is label 1. Lower than -0.3? That is label 0.

Worked cases, answers included:
change	class.assignment
E59M	label 1
G63D	label 1
E41Y	label 0
R50G	label 0
E41N	label 1
D27R	label 1
L39V	label 0
P19W	label 1

Request: abundance fitness >= -0.3 for E41A ?
Result: label 1

Request: abundance fitness >= -0.3 for D47N ?
Result: label 1
